- System: UACC-257
- ASSAY_EXPLANATION: Growth inhibition of human UACC257 cells assessed as cell growth at 10 uM after 48 hrs by sulforhodamine B assay
- Assay type: functional
- STATED_CONDITIONS: UACC-257, 48 h, read-out: Activity
growth at 10 µM strictly less than -20% = 1. Otherwise 0.

// below: answered compounds
COMPOUND_STRUCTURE_STRING	ASSIGNED_CLASS
COc1cc(-c2nn(-c3cccc(NC(=O)Nc4cc(C(F)(F)F)cc(C(F)(F)F)c4)c3)cc2-c2ccncc2)ccc1Cl	1
O=C(Nc1cccc(-n2cc(-c3ccncc3)c(-c3ccc(Cl)c(O)c3)n2)c1)Nc1cccc(C(F)(F)F)c1	0
O=C(Nc1cccc(-n2cc(-c3ccncc3)c(-c3ccc(Cl)c(O)c3)n2)c1)c1ccc(Cl)c(C(F)(F)F)c1	0
O=C(Nc1cccc(-n2cc(-c3ccncc3)c(-c3ccc(Cl)c(O)c3)n2)c1)Nc1ccc(Cl)c(Cl)c1	0
O=C(Nc1cccc(-n2cc(-c3ccncc3)c(-c3ccc(Cl)c(O)c3)n2)c1)Nc1ccc(Cl)c(C(F)(F)F)c1	1

QUERY: Is the reported growth at 10 µM for Cc1cc(C(=O)Nc2cccc(-n3cc(-c4ccncc4)c(-c4ccc(Cl)c(O)c4)n3)c2)ccc1Br strictly below -20%?
RESULT: 0

QUERY: Is the reported growth at 10 µM for COc1cc(-c2nn(-c3cccc(NC(=O)c4ccc(N5CCOCC5)c(C(F)(F)F)c4)c3)cc2-c2ccncc2)ccc1Cl strictly below -20%?
RESULT: 0

QUERY: Is the reported growth at 10 µM for COc1cc(-c2nn(-c3cccc(NC(=O)Nc4ccccc4)c3)cc2-c2ccncc2)ccc1Cl strictly below -20%?
RESULT: 0

* * *

- Tested on: MDA-MB-231
- ASSAY_EXPLANATION: Growth inhibition of human MDA-MB-231 cells after 48 hrs by sulforhodamine B assay
- Format: functional
- STATED_CONDITIONS: MDA-MB-231, 48 h
Below, each of the compounds is paired with its reported GI50 value.
Return type: number; implicit unit nM.

COMPOUND_STRUCTURE_STRING	GI50, nM
COc1cc(-c2nn(-c3cccc(NC(=O)c4ccccc4)c3)cc2-c2ccncc2)ccc1Cl	1170

QUERY: Look up and state reported GI50 for COc1cc(-c2nn(-c3cccc(NC(=O)c4ccc(Cl)c(C(F)(F)F)c4)c3)cc2-c2ccncc2)ccc1Cl
RESULT: 1200

QUERY: Look up and state reported GI50 for O=C(Nc1cccc(-n2cc(-c3ccncc3)c(-c3ccc(Cl)c(O)c3)n2)c1)c1ccc(N2CCOCC2)c(C(F)(F)F)c1
RESULT: 975

QUERY: Look up and state reported GI50 for COc1cc(-c2nn(-c3cccc(NC(=O)Nc4ccc(Cl)c(C(F)(F)F)c4)c3)cc2-c2ccncc2)ccc1Cl
RESULT: 760

* * *

Below, each of the molecules is paired with its reported growth at 10 µM value.
- System: NCI-H322M
- ASSAY_EXPLANATION: Growth inhibition of human NCI-H322M cells assessed as cell growth at 10 uM after 48 hrs by sulforhodamine B assay
- Assay type: functional
- STATED_CONDITIONS: read-out: Activity
Return type: number; implicit unit %.

COMPOUND_STRUCTURE_STRING	UNIT_TAG	growth at 10 µM
COc1cc(-c2nn(-c3cccc(NC(=O)Nc4cccc(C(F)(F)F)c4)c3)cc2-c2ccncc2)ccc1Cl	%	21.7
COc1cc(-c2nn(-c3cccc(NC(=O)Nc4ccc(Cl)c(Cl)c4)c3)cc2-c2ccncc2)ccc1Cl	%	38.8

QUERY: Look up and state reported growth at 10 µM for O=C(Nc1cccc(-n2cc(-c3ccncc3)c(-c3ccc(Cl)c(O)c3)n2)c1)c1ccc(N2CCOCC2)c(C(F)(F)F)c1
RESULT: 82.1

QUERY: Look up and state reported growth at 10 µM for COc1cc(-c2nn(-c3cccc(NC(=O)Nc4ccc(Cl)c(C(F)(F)F)c4)c3)cc2-c2ccncc2)ccc1Cl
RESULT: 32.3
